experimental.target: Broad substrate specificity ATP-binding cassette transporter ABCG2 (Homo sapiens)
experiment.summary: Inhibition of human ABCG2 transfected in human HEK293 cells assessed as inhibition of mitoxantrone efflux measured after 30 mins by FACS Calibur cytometric analysis
Consider the following compounds; for each one, report its IC50.
Numeric only. Scale: nM

// IC50 lookup, compound = `COc1cccc(CCn2c3c(c4c(OCCCCOc5cccc6c5c5c(n6CCc6cccc(OC)c6)-c6ccccc6C5=O)cccc42)C(=O)c2ccccc2-3)c1` , result: 24.1

// IC50 lookup, compound = COc1cccc(CCn2c3c(c4c(OCCOc5ccc6c(c5)-c5c(c7c(n5CCc5ccccc5)CC(C)CC7=O)C6=O)cccc42)C(=O)c2ccccc2-3)c1 (stereo not drawn) , result: 68

---

Consider the following molecules; for each one, report its selectivity ratio.
Test system: ABCG2
experiment.summary: Therapeutic ratio of IG50 for growth inhibition of human HEK293 cells overexpressing human ABCG2 to IC50 for inhibition of human ABCG2 expressed in human HEK293 cells
Format: toxicity, cell-based
Quick one: just the number, no unit, thanks!

Param item: `COc1cccc(CCn2c3c(c4c(OCCCCOc5cccc6c5c5c(n6CCc6cccc(OC)c6)-c6ccccc6C5=O)cccc42)C(=O)c2ccccc2-3)c1` ; param system: ABCG2; output selectivity ratio: 2160

Param item: CC1CC(=O)c2c3c(n(CCc4ccccc4)c2C1)-c1cc(OCCCCOc2ccc4c(c2)-c2c(c5c(n2CCc2ccccc2)CC(C)CC5=O)C4=O)ccc1C3=O (stereo not drawn) ; param system: ABCG2; output selectivity ratio: 126

Param item: COc1cccc(CCn2c3c(c4c(OCCOc5ccc6c(c5)-c5c(c7c(n5CCc5ccccc5)CC(C)CC7=O)C6=O)cccc42)C(=O)c2ccccc2-3)c1 (stereo not drawn) ; param system: ABCG2; output selectivity ratio: 3250

Param item: CC1CC(=O)c2c3c(n(CCc4ccccc4)c2C1)-c1cc(OCCOc2ccc4c(c2)-c2c(c5c(n2CCc2ccccc2)CC(C)CC5=O)C4=O)ccc1C3=O (stereo not drawn) ; param system: ABCG2; output selectivity ratio: 758

Param item: COc1cccc(CCn2c3c(c4c(OCCCCOc5ccc6c(c5)-c5c(c7c(n5CCc5ccccc5)CC(C)CC7=O)C6=O)cccc42)C(=O)c2ccccc2-3)c1 (stereo not drawn) ; param system: ABCG2; output selectivity ratio: 2230

---

System: ABCG2
experiment.summary: Therapeutic ratio of IG50 for growth inhibition of human HEK293 cells to IC50 for inhibition of human ABCG2 expressed in human HEK293 cells
Assay type: toxicity, cell-based
measured.attribute: selectivity ratio
Quick one: just the number, no unit, thanks!

Param item: COc1cccc(CCn2c3c(c4c(OCCCCOc5ccc6c(c5)-c5c(c7c(n5CCc5ccccc5)CC(C)CC7=O)C6=O)cccc42)C(=O)c2ccccc2-3)c1 (stereo unspecified) ; param system: ABCG2; output selectivity ratio: 2230

Param item: COc1cccc(CCn2c3c(c4c(OCCOc5ccc6c(c5)-c5c(c7c(n5CCc5ccccc5)CC(C)CC7=O)C6=O)cccc42)C(=O)c2ccccc2-3)c1 (stereo unspecified) ; param system: ABCG2; output selectivity ratio: 3250

Param item: `COc1cccc(CCn2c3c(c4c(OCCCCOc5cccc6c5c5c(n6CCc6cccc(OC)c6)-c6ccccc6C5=O)cccc42)C(=O)c2ccccc2-3)c1` ; param system: ABCG2; output selectivity ratio: 3300

---

Test system: ABCG2
experiment.summary: Therapeutic ratio of IG50 for growth inhibition of human HEK293 cells to IC50 for inhibition of human ABCG2 expressed in human HEK293 cells
Type: toxicity, cell-based
Consider the following compounds; for each one, report its selectivity ratio.
Quick one: just the number, no unit, thanks!

// selectivity ratio lookup, compound = CC1CC(=O)c2c3c(n(CCc4ccccc4)c2C1)-c1cc(OCCOc2ccc4c(c2)-c2c(c5c(n2CCc2ccccc2)CC(C)CC5=O)C4=O)ccc1C3=O (stereo not drawn) , result: 758

// selectivity ratio lookup, compound = CC1CC(=O)c2c3c(n(CCc4ccccc4)c2C1)-c1cc(OCCCCOc2ccc4c(c2)-c2c(c5c(n2CCc2ccccc2)CC(C)CC5=O)C4=O)ccc1C3=O (stereo not drawn) , result: 126

---

experimental.target: Broad substrate specificity ATP-binding cassette transporter ABCG2 (Homo sapiens)
Sequence (Q9UNQ0 whole entry): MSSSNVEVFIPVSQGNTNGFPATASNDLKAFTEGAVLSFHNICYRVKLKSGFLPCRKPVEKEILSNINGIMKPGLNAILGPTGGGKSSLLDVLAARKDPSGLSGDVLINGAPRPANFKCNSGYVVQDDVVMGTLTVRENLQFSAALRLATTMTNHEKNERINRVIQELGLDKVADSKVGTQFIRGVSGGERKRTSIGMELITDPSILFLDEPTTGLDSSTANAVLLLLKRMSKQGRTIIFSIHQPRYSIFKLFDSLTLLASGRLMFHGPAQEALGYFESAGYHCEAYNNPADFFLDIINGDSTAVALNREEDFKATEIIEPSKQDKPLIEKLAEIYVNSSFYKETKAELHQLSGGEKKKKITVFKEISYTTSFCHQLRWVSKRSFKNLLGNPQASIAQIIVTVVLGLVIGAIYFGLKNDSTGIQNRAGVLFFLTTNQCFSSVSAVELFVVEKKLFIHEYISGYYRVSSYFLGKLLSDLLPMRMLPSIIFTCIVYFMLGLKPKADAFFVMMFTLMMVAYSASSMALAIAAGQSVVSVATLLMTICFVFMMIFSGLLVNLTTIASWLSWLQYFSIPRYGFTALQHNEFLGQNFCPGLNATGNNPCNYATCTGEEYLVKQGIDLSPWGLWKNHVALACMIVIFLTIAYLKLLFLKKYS
experiment.summary: Inhibition of human ABCG2 transfected in human HEK293 cells assessed as inhibition of mitoxantrone efflux measured after 30 mins by FACS Calibur cytometric analysis
Consider the following compounds; for each one, report its pIC50.
By convention, pIC50 is the negative base-10 log of a molar concentration.

// pIC50 lookup, compound = CC1CC(=O)c2c3c(n(CCc4ccccc4)c2C1)-c1cc(OCCOc2ccc4c(c2)-c2c(c5c(n2CCc2ccccc2)CC(C)CC5=O)C4=O)ccc1C3=O (configuration not stated) , result: 6.50

// pIC50 lookup, compound = COc1cccc(CCn2c3c(c4c(OCCCCOc5ccc6c(c5)-c5c(c7c(n5CCc5ccccc5)CC(C)CC7=O)C6=O)cccc42)C(=O)c2ccccc2-3)c1 (configuration not stated) , result: 6.88

// pIC50 lookup, compound = CC1CC(=O)c2c3c(n(CCc4ccccc4)c2C1)-c1cc(OCCCCOc2ccc4c(c2)-c2c(c5c(n2CCc2ccccc2)CC(C)CC5=O)C4=O)ccc1C3=O (configuration not stated) , result: 6.06

// pIC50 lookup, compound = `COc1cccc(CCn2c3c(c4c(OCCCCCCOc5cccc6c5c5c(n6CCc6cccc(OC)c6)-c6ccccc6C5=O)cccc42)C(=O)c2ccccc2-3)c1` , result: 7.56

// pIC50 lookup, compound = `COc1cccc(CCn2c3c(c4c(OCCOc5cccc6c5c5c(n6CCc6cccc(OC)c6)-c6ccccc6C5=O)cccc42)C(=O)c2ccccc2-3)c1` , result: 7.42

// pIC50 lookup, compound = `COc1cccc(CCn2c3c(c4c(O)cccc42)C(=O)c2ccccc2-3)c1` , result: 6.14

// pIC50 lookup, compound = COc1cccc(CCn2c3c(c4c(OCCCCCCOc5ccc6c(c5)-c5c(c7c(n5CCc5ccccc5)CC(C)CC7=O)C6=O)cccc42)C(=O)c2ccccc2-3)c1 (configuration not stated) , result: 7.49

// pIC50 lookup, compound = COc1cccc(CCn2c3c(c4c(OCCCCCCCCOc5ccc6c(c5)-c5c(c7c(n5CCc5ccccc5)CC(C)CC7=O)C6=O)cccc42)C(=O)c2ccccc2-3)c1 (configuration not stated) , result: 6.41

// pIC50 lookup, compound = CC1CC(=O)c2c3c(n(CCc4ccccc4)c2C1)-c1ccccc1C3=O (configuration not stated) , result: 6.11

---

experiment.summary: Growth inhibition of human HEK293 cells overexpressing human ABCG2 after 72 hrs by MTT assay
Assay type: ADME, cell-based
condition.description: read-out: IG50
measured.attribute: GI50 at 72 h (µM)
Numeric only. Scale: µM

// GI50 at 72 h lookup, molecule = CC1CC(=O)c2c3c(n(CCc4ccccc4)c2C1)-c1cc(OCCOc2ccc4c(c2)-c2c(c5c(n2CCc2ccccc2)CC(C)CC5=O)C4=O)ccc1C3=O (stereo not drawn) , result: 242

// GI50 at 72 h lookup, molecule = COc1cccc(CCn2c3c(c4c(OCCOc5ccc6c(c5)-c5c(c7c(n5CCc5ccccc5)CC(C)CC7=O)C6=O)cccc42)C(=O)c2ccccc2-3)c1 (stereo not drawn) , result: 221

---

System: ABCG2
experiment.summary: Therapeutic ratio of IG50 for growth inhibition of human HEK293 cells overexpressing human ABCG2 to IC50 for inhibition of human ABCG2 expressed in human HEK293 cells
Type: toxicity, cell-based
measured.attribute: selectivity ratio

// selectivity ratio lookup, molecule = COc1cccc(CCn2c3c(c4c(OCCCCCCOc5ccc6c(c5)-c5c(c7c(n5CCc5ccccc5)CC(C)CC7=O)C6=O)cccc42)C(=O)c2ccccc2-3)c1 (stereo not drawn) , result: > 3070

// selectivity ratio lookup, molecule = `COc1cccc(CCn2c3c(c4c(OCCCCCCOc5cccc6c5c5c(n6CCc6cccc(OC)c6)-c6ccccc6C5=O)cccc42)C(=O)c2ccccc2-3)c1` , result: ≥ 70000

// selectivity ratio lookup, molecule = COc1cccc(CCn2c3c(c4c(OCCCCCCCCOc5ccc6c(c5)-c5c(c7c(n5CCc5ccccc5)CC(C)CC7=O)C6=O)cccc42)C(=O)c2ccccc2-3)c1 (stereo not drawn) , result: > 52
